Assign protein stability index to each entry below.
B1: TRIM39 (parent)
chain: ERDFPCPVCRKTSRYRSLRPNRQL

# Variants of: B1
# protocol-description: protein stability index of a GFP-peptide fusion (GPS, HEK-293T) (PSI 1-6); higher = more stable;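 note: lentivirally expressed fusions sorted by FACS into six bins by GFP to DsRed ratio, PSI derived from sequencing read proportions per bin multiplied by bin number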
# test-settings: c terminus: a fixed tail appended
I only need the number, thanks.

So what's the measured protein stability index for this one? E1H
2.03

So what's the measured protein stability index for this one? F4L
2.1

So what's the measured protein stability index for this one? P5L
3

So what's the measured protein stability index for this one? C9D
4.01

So what's the measured protein stability index for this one? L24D
1.75

So what's the measured protein stability index for this one? R22Y
2.23

So what's the measured protein stability index for this one? R19S
2.58

So what's the measured protein stability index for this one? L18P
2.89

So what's the measured protein stability index for this one? D3M
2.56

So what's the measured protein stability index for this one? R14G
2.13

So what's the measured protein stability index for this one? P20M
3.02

So what's the measured protein stability index for this one? Q23D
2.34

So what's the measured protein stability index for this one? R2G
1.57

So what's the measured protein stability index for this one? P20T
2.13

So what's the measured protein stability index for this one? C6L
3.19

So what's the measured protein stability index for this one? V8D
2.2
